System: MHV68UNGΔN-Ls (murine gammaherpesvirus 68 / mouse chimera)
assayOverview: fluorescence anisotropy
conditionDescription: N15 of strand 1 = abasic (AP) site made from U by UNG; G opposite
measuredQuantity: Kd
Could you kindly put the unit after your number?

Challenge: Retrieve Kd measured for AGAAAAGGGGAAAGNAAAGAGGAAAGGTGAGGAGGT / ACCTCCTCACCTTTCCTCTTTGCTTTCCCCTTTTCT [AP:G dsDNA (fluorescein)] and print it.
Response given: 751 nM

* * *

System: MHV68UNG (murine gammaherpesvirus 68)
assayOverview: fluorescence anisotropy
conditionDescription: N15 of strand 1 = abasic (AP) site made from U by UNG; G opposite
measuredQuantity: Kd

Challenge: // fetch Kd given entry AGAAAAGGGGAAAGNAAAGAGGAAAGGTGAGGAGGT / ACCTCCTCACCTTTCCTCTTTGCTTTCCCCTTTTCT [AP:G dsDNA (fluorescein)]
Response given: 680 nM
